Values of Ki reported for D(4) dopamine receptor (Rattus norvegicus) appear below.
Counter-ions that a name gives are not always drawn.
measured parameter: Ki

compound	measured parameter	result
C=CCN1Cc2cccc3c2[C@@H](C1)c1ccc(O)c(O)c1C3 (racemic) [Dinapsoline,(+/-)-N-allyl]	Ki	48 nM
Cc1ccc2c3c1CNC[C@H]3c1ccc(O)c(O)c1C2 (racemic) [Dinapsoline,(+/-)-4-Methyl]	Ki	83 nM
Oc1ccc2c(c1O)Cc1cccc3c1[C@H]2CNC3 [Dinapsoline, (R)(+)]	Ki	60 nM
Cc1ccc2c3c1Cc1c(ccc(O)c1O)[C@@H]3CNC2 (racemic) [Dinapsoline,(+/-)-6-Methyl]	Ki	220 nM
CCCN1Cc2c(C)ccc3c2[C@@H](C1)c1ccc(O)c(O)c1C3 (racemic) [Dinapsoline,(+/-)-4-Methyl-N-propyl]	Ki	28 nM
CCCN1Cc2cccc3c2[C@@H](C1)c1ccc(O)c(O)c1C3 (racemic) [(+/-)-2-propyldinapsoline hydrobromide]	Ki	17 nM
C=CCN1Cc2c(C)ccc3c2[C@@H](C1)c1ccc(O)c(O)c1C3 (racemic) [Dinapsoline,(+/-)-4-Methyl-N-allyl]	Ki	63 nM
